tested on: RAW264.7; experiment: cells; conditions: Mus musculus
reported_property: IC50 (µM)
One number for each entry, in µM.

Ask: Give the measured IC50 for `COc1cc(-c2nc(Nc3ccc(F)cc3)c3c4c(sc3n2)CCCC4)cc(OC)c1OC`
Reply: 168

----------
test: Inhibition of soybean 15-LOX using arachidonic acid as substrate preincubated with compound followed by substrate addition and measured after 5 mins by absorbance based microplate reader; design: species or system Glycine max
reported_property: IC50 (nM)
Give bare numbers, in nM.

Ask: Name the recorded IC50 of the item `O=C(C/C(=C/c1cccc([N+](=O)[O-])c1)c1n[nH]c(=S)o1)c1ccc(Cl)c(Cl)c1` in your answer.
Reply: 1630
